# Tested on: Plasma
# test description: Average plasma concentration in Swiss mouse at 30 mg/kg, po after up to 8 hrs
# Assay type: ADME, organism-based
# Design: dose 30 mg/kg, route oral
# condition: in vivo
Measured log10 Cave accompanies every entry in the list below.
property label: log10 Cave (log10 of the value in µM)

• COc1ccc(-c2cc(-c3ccc(C(N)=O)cc3)cnc2N)cn1 = 0.91
• Nc1ncc(-c2ccc(C(=O)N3CCOCC3)cc2)cc1-c1ccc(C(F)(F)F)nc1 = 0.53
• COc1ccc(-c2cc(-c3ccc(C(=O)N4CCOCC4)cc3)cnc2N)cn1 = 0.89
• Nc1ncc(-c2ccc(C(=O)N3CCOCC3)cc2)cc1-c1ccc(C(F)(F)F)cc1 = -0.70
• COc1ccc(-c2cc(-c3ccc(C(=O)N(C)C)cc3)cnc2N)cn1 = 1.40

----------
Overview of recorded logD for various molecules
# test description: physchem
# condition: octanol/water, pH 7.4
property label: logD

• COc1ccc(-c2cc(-c3cccc(C(N)=O)c3)cnc2N)cn1 = 1.7
• COc1ccc(-c2cc(-c3ccc(S(=O)(=O)N4CCN(C)CC4)cc3)cnc2N)cn1 = 2.7
• COc1ccc(-c2cc(-c3ccc4cnn(C)c4c3)cnc2N)cn1 = 3
• COc1ccc(-c2cc(-c3ccc(S(C)(=O)=O)cc3C(F)(F)F)cnc2N)cn1 = 2.7
• COc1ccc(-c2cc(-c3ccc(S(=O)(=O)N(C)C)cc3)cnc2N)cn1 = 2.8
• COc1ccc(-c2cc(-c3ccc(C(=O)O)cc3)cnc2N)cn1 = 0.8
• COc1ccc(-c2cc(-c3ccc(NS(C)(=O)=O)cc3)cnc2N)cn1 = 2.2
• CNS(=O)(=O)c1ccc(-c2cnc(N)c(-c3ccc(OC)nc3)c2)cc1 = 2.2
• COc1ccc(-c2cc(-c3ccc(S(N)(=O)=O)cc3)cnc2N)cn1 = 1.8
• COc1ccc(-c2cc(-c3ccc(C(=O)NCCN4CCOCC4)cc3)cnc2N)cn1 = 1.9

----------
# test description: Kinetic solubility of the compound in phosphate buffer at pH 6.5 by nephelometry analysis
# Format: physicochemical
# condition: read-out: Kinetic_solubility
Listed below: solubility kinetic values for each entry.
property label: solubility kinetic (µg/mL)

- CNC(=O)c1ccc(-c2cnc(N)c(-c3ccc(OC)nc3)c2)cc1: 50
- COc1ccc(-c2cc(-c3ccc(-n4cccn4)cc3)cnc2N)cn1: 3.1
- Nc1ncc(-c2ccc(C(=O)N3CCOCC3)cc2)cc1-c1ccc(C(F)(F)F)nc1: 25
- COc1ccc(-c2cc(-c3ccc(S(C)(=O)=O)c(F)c3)cnc2N)cn1: 6.3
- COc1ccc(-c2cc(-c3ccc(S(=O)(=O)NC4CC4)cc3)cnc2N)cn1: 6.3
- Nc1ncc(-c2ccc(C(=O)N3CCNCC3)cc2)cc1-c1ccc(C(F)(F)F)cc1: 25
- COc1ccc(-c2cc(-c3ccc4nccn4c3)cnc2N)cn1: 12.5
- COc1ccc(-c2cc(-c3ccc(-c4nnc(C)o4)cc3)cnc2N)cn1: 12.5
- COc1ccc(-c2cc(-c3ccc(-n4cncn4)cc3)cnc2N)cn1: 6.3
- COc1ccc(-c2cc(-c3cccc(C(N)=O)c3)cnc2N)cn1: 12.5
- CNS(=O)(=O)c1ccc(-c2cnc(N)c(-c3ccc(OC)nc3)c2)cc1: 12.5
- COc1ccc(-c2cc(-c3ccc(C(=O)NCCCO)cc3)cnc2N)cn1: 12.5
- COc1ccc(-c2cnc(N)c(-c3ccc(OC)nc3)c2)cn1: 25
- CN1CCN(C(=O)c2ccc(-c3cnc(N)c(-c4ccc(C(F)(F)F)cc4)c3)cc2)CC1: 25
- COc1ccc(-c2cc(-c3cccc(S(C)(=O)=O)c3)cnc2N)cn1: 25
- COc1ccc(-c2cc(-c3ccc(S(=O)(=O)N4CCN(C)CC4)cc3)cnc2N)cn1: 25
- COc1ccc(-c2cc(-c3ccc(C(=O)N4CCOCC4)cc3)cnc2N)cn1: 25
- COc1ccc(-c2cc(-c3ccc(C(F)(F)F)cc3)cnc2N)cn1: 1.6
- COc1ccc(-c2cc(-c3ccc4ncccc4c3)cnc2N)cn1: 6.3
- COc1ccc(-c2cc(-c3ccc(NS(C)(=O)=O)cc3)cnc2N)cn1: 25
- COc1ccc(-c2cc(-c3ccc(S(C)(=O)=O)cc3C(F)(F)F)cnc2N)cn1: 12.5
- COc1ccc(-c2cc(-c3ccc(C(N)=O)cc3)cnc2N)cn1: 12.5
- Nc1ncc(-c2ccc(C(=O)N3CCNCC3)cc2)cc1-c1ccc(C(F)(F)F)nc1: 50
- COc1ccc(-c2cc(-c3ccc(C(=O)O)cc3)cnc2N)cn1: 6.3
- COc1ccc(-c2cc(-c3ccc(OC(F)(F)F)cc3)cnc2N)cn1: 1.6
- Nc1ncc(-c2ccc(C(=O)N3CCOCC3)cc2)cc1-c1ccc(C(F)(F)F)cc1: 6.3
- COc1ccc(-c2cc(-c3ccc4cnn(C)c4c3)cnc2N)cn1: 6.3
- COc1ccc(-c2cc(-c3ccc(S(=O)(=O)N4CCOCC4)cc3)cnc2N)cn1: 6.3
- COc1ccc(-c2cc(-c3ccc(S(=O)(=O)N(C)C)cc3)cnc2N)cn1: 6.3
- COc1ccc(-c2cc(-c3ccc(S(N)(=O)=O)cc3)cnc2N)cn1: 12.5
